- TEST SYSTEM: EGFR exon 20 SVD Ins D770_N771 (Ba/F3 cells) (Homo sapiens, UniProt P00533, INS770SVD)
- Construct: expressed in transfected cells; host or cells: Ba/F3 (murine pro-B cells), retroviral transduction, puromycin selection, IL3-independent pool
- Sequence (P00533 with tags, fused parts or gaps INS770SVD): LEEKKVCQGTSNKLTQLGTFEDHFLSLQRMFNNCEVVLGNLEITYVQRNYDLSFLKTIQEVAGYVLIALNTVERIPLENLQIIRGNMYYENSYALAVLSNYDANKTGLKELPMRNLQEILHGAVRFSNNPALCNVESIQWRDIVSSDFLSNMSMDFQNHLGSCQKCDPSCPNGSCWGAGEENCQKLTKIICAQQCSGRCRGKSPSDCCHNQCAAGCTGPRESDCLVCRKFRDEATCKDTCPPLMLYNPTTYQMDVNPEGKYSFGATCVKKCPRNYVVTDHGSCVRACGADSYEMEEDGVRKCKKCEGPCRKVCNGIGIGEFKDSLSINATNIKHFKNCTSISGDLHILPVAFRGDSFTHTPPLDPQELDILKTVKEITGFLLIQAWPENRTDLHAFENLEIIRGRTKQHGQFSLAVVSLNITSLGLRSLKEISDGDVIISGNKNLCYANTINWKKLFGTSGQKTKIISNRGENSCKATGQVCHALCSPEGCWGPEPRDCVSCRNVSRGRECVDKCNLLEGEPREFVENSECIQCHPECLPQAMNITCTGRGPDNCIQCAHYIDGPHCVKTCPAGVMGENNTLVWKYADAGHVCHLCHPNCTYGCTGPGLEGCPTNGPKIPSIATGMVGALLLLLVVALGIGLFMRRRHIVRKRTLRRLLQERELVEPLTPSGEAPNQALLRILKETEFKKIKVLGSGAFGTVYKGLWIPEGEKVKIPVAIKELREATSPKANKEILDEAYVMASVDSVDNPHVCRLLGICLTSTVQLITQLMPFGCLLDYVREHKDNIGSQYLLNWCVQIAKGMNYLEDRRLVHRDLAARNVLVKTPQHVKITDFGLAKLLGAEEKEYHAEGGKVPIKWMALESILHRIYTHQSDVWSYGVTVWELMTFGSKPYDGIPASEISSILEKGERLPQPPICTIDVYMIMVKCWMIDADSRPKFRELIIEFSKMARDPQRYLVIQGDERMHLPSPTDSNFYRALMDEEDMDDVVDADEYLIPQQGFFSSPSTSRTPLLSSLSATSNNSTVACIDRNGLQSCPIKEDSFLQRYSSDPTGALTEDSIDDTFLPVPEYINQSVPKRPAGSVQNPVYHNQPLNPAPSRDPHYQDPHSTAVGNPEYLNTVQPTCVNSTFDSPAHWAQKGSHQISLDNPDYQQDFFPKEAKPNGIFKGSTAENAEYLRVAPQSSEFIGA
- PROTOCOL: Inhibitor activity on EGFR-dependent cell growth (CellTiter-Glo, 72 h), Ba/F3 EGFR exon 20 SVD Ins
- Assay type: cell-based
- CONDITION INFO: read-out: BaF3 SVD IC50
pIC50: −log10 of the molar value.
Here, each record is paired with measured pIC50 data.

Worked cases, answers included:
{"COMPOUND": "COc1c(F)cccc1Nc1c(-c2ccnc(C)n2)[nH]c2c(C[C@@H]3COCCO3)c[nH]c(=O)c12", "QUANTITY NAME": "pIC50", "ENDPOINT RESULT": "> 7.00"}
{"COMPOUND": "COc1c(Cl)cccc1Nc1c(-c2ccnc3[nH]c(=O)c(OC)nc23)[nH]c2c1C(=O)NCC2", "QUANTITY NAME": "pIC50", "ENDPOINT RESULT": "> 7.00"}
{"COMPOUND": "COc1cc2c(-c3[nH]c4c(c3Nc3cccc(Cl)c3OC)C(=O)NCC4)ccnc2cn1", "QUANTITY NAME": "pIC50", "ENDPOINT RESULT": "< 6.00"}
{"COMPOUND": "COc1c(Cl)cccc1Nc1c(-c2ccnc3ccc(OCC4CCC4)nc23)[nH]c2c1C(=O)NCC2", "QUANTITY NAME": "pIC50", "ENDPOINT RESULT": "6.00 to 7.00"}

INPUT: Quick one: pIC50 of COc1c(F)cccc1Nc1c(-c2ccnc3ccc(NC(C)(C)C)nc23)[nH]c2c1C(=O)NCC2 ?
OUTPUT: > 7.00

INPUT: Need pIC50 of Cc1cccc(F)c1Nc1c(-c2ccnc(N)n2)[nH]c2c1C(=O)NCC2 , thanks.
OUTPUT: < 6.00

INPUT: Query: pIC50; subject: C#Cc1cccc(Nc2c(-c3ccnc(N)n3)[nH]c3c2C(=O)NCC3)c1OC
OUTPUT: < 6.00

INPUT: Recorded pIC50 for COc1c(F)cccc1Nc1c(-c2ccncn2)[nH]c2c1C(=O)NCC21CCN(C(=O)/C=C/CN(C)C)CC1 , please?
OUTPUT: 6.00 to 7.00

INPUT: Name the reported pIC50 value associated with the compound C=CC(=O)N1CCC2(CC1)CNC(=O)c1c2[nH]c(-c2ccnc(C)n2)c1Nc1cc(F)cc(Cl)c1OC
OUTPUT: > 7.00

INPUT: # input compound: C=CC[C@H]1CNC(=O)c2c1[nH]c(-c1ccncc1F)c2Nc1cccc(Cl)c1OC ; wanted: its pIC50
OUTPUT: < 6.00

INPUT: Fill in: pIC50 of COCC[C@H]1CNC(=O)c2c1[nH]c(-c1ccnc(N)n1)c2Nc1cccc(Cl)c1OC is ___
OUTPUT: > 7.00

INPUT: Suppose we examine the compound COc1c(Cl)cccc1Nc1c(-c2ccnc(NC[C@@H]3CCCO3)n2)[nH]c2c1C(=O)NCC2 ; what pIC50 value has been reported?
OUTPUT: < 6.00

INPUT: Look up pIC50: C=CC(=O)N1CC[C@]2(CNC(=O)c3c2[nH]c(-c2ccncc2F)c3Nc2cccc(Cl)c2OC)C1
OUTPUT: 6.00 to 7.00

INPUT: // lookup pIC50 for COc1c(Cl)cccc1Nc1c(-c2ccnc3ccc(O[C@H]4CCCOC4)nc23)[nH]c2c1C(=O)NCC2
OUTPUT: > 7.00

INPUT: Can you look up the measured pIC50 of COc1c(Cl)cccc1Nc1c(-c2ccncc2F)[nH]c2c1C(=O)NCC2C[C@@H]1CO[C@@H](CN(C)C)CO1 (single isomer, unassigned) [Compound 562] for me?
OUTPUT: > 7.00

INPUT: Look at this compound and give its reported pIC50. COc1c(Cl)cccc1Nc1c(-c2ccnc3cnc(OCCCN4CCOCC4)nc23)[nH]c2c1C(=O)NCC2
OUTPUT: > 7.00

INPUT: For COc1c(Cl)cccc1Nc1c(-c2ccnc3ccc(OC4CC4)nc23)[nH]c2c1C(=O)NCC2 , what is its reported pIC50?
OUTPUT: > 7.00

INPUT: Need pIC50 of COCC[C@H]1CNC(=O)c2c1[nH]c(-c1ccncc1F)c2Nc1cccc(F)c1OC(F)F , thanks.
OUTPUT: 6.00 to 7.00

INPUT: What does the data say about its pIC50? Entry: COc1ncc2nccc(-c3[nH]c4c(c3Nc3cccc(F)c3OC)C(=O)NCC4)c2n1
OUTPUT: > 7.00

Sourced from patent US20240101576A1
